Record form. Attribute: IC50. Fill in for each entry.
system: Plasmodium falciparum; experiment: Antimalarial activity against chloroquine-sensitive Plasmodium falciparum NF54 infected in RBC after 72 hrs by [3H]hypoxanthine incorporation assay in presence of 0.5 % albumax; type: functional, organism-based

INPUT: Quick one: IC50 of C[C@@H](NC[C@@H](O)[C@H](Cc1ccccc1)NC(=O)c1ccc(O)c(CN2CCCC2)c1)c1ccccc1 ?
OUTPUT: 261 nM

INPUT: Quick one: IC50 of CCN(CC)Cc1cc(CNC[C@@H](O)[C@H](Cc2ccccc2)NC(=O)c2ccc(N3CCN(C)CC3)cc2)ccc1O ?
OUTPUT: 333 nM

INPUT: Quick one: IC50 of CC(C)C[C@H](NC(=O)c1ccc(N2CCN(C)CC2)cc1)[C@H](O)CNC1CCCC1 ?
OUTPUT: > 500 nM
